# log10(CC50 at 24 h) values compiled below
assay: Cell cytotoxicity test: protection of HT22 cells against glutamate toxicity (EC50) and cytotoxicity of the compounds (CC50), MTT; assay type: cell-based, mouse; conditions: mouse, HT22 cells (mouse hippocampal neuron)
Counter-ions that a name gives are not always drawn.
Transform log10 | Measure CC50 at 24 h | Unit µM

Answered cases to consult:
Oc1cccc(Nc2cc3c(cc2O)[C@]24CCCC[C@@H]2[C@H](C3)NCC4)c1 [Example 44, TFA salt]
1.88
CNc1cc2c(cc1O)[C@]13CCCC[C@@H]1[C@H](C2)NCC3 [Example 18, TFA salt]
1.77
CCc1ccc(Nc2cc3c(cc2O)[C@]24CCCC[C@@H]2[C@H](C3)NCC4)cc1 [Example 53, TFA salt]
0.20
Oc1cc2c(cc1Nc1ccccc1Cc1ccccc1)C[C@@H]1NCC[C@]23CCCC[C@H]13 [Example 62, TFA salt]
0.20
CC(C)COC(=O)Nc1ccccc1Nc1cc2c(cc1O)[C@]13CCCC[C@@H]1[C@H](C2)NCC3 [Example 119, TFA salt]
0.94
Cc1cc(C)cc(Nc2cc3c(cc2O)[C@]24CCCC[C@@H]2[C@H](C3)NCC4)c1 [Example 27, TFA salt]
0.18
CC(Nc1cc2c(cc1O)[C@]13CCCC[C@@H]1[C@H](C2)NCC3)c1ccccc1 (stereo partly drawn) [Example 91, TFA salt]
1.18
Oc1cc2c(cc1Nc1ccc3ncccc3c1)C[C@@H]1NCC[C@]23CCCC[C@H]13 [Example 68, TFA salt]
0.93

Give log10(CC50 at 24 h) for the following compound: Oc1ccc(F)cc1Nc1cc2c(cc1O)[C@]13CCCC[C@@H]1[C@H](C2)NCC3 [Example 56, TFA salt] 1.10

Provide log10(CC50 at 24 h) value for the following compound: CS(=O)(=O)Nc1ccccc1Nc1cc2c(cc1O)[C@]13CCCC[C@@H]1[C@H](C2)NCC3 [Example 110, TFA salt] 0.88

---

assay: Cell cytotoxicity test: protection of HT22 cells against glutamate toxicity (EC50) and cytotoxicity of the compounds (CC50), MTT; type: cell-based, mouse; conditions: mouse, HT22 cells (mouse hippocampal neuron)
Where a name gives a salt, the structure may show the parent alone.
readout: CC50 at 24 h (µM)
Supply the numeric figure in µM, leaving out any unit text.

Here are 3 molecules together with their reported answers.
Oc1cc2c(cc1Nc1cccc3cnccc13)C[C@@H]1NCC[C@]23CCCC[C@H]13 [Example 67, TFA salt]
12.5
Oc1cc2c(cc1Nc1c(O)cccc1O)C[C@@H]1NCC[C@]23CCCC[C@H]13 [Example 47, TFA salt]
9
CS(=O)(=O)Nc1ccc(Nc2cc3c(cc2O)[C@]24CCCC[C@@H]2[C@H](C3)NCC4)cc1 [Example 114, TFA salt]
11.4

// next item, CC50 at 24 h requested
Look up CC50 at 24 h of Oc1cc2c(cc1Nc1ccccc1N1CCCCC1)C[C@@H]1NCC[C@]23CCCC[C@H]13 [Example 128, TFA salt] and report it. 1.6
